test: PK protocol (intravenous and oral administration); type: in vivo, male Sprague Dawley rats; conditions: male, Sprague Dawley, plasma; rat, intravenous, dose 1.42 mg/kg; read-out: Vdss
metric: Vd (L/kg)
Numbers only, in L/kg.

Short answer for CCn1nc(S(=O)(=O)NC(=O)Nc2c3c(cc4c2CCC4)CCC3)cc1C1(O)COC1 [Example 46] : Vd was 0.56

* * *

biological target: NLRP3 (Homo sapiens); assay: THP-1 cells pyroptosis assay; format: cell-based; design: Seed THP-1 cells (25,000 cells/well) containing 1.0 μg/ml LPS; host or cells: THP-1 cells, LPS-primed, nigericin-stimulated; settings: LPS 1 μg/ml, nigericin 5 μM, resazurin read-out
Sequence (Q96P20 whole entry): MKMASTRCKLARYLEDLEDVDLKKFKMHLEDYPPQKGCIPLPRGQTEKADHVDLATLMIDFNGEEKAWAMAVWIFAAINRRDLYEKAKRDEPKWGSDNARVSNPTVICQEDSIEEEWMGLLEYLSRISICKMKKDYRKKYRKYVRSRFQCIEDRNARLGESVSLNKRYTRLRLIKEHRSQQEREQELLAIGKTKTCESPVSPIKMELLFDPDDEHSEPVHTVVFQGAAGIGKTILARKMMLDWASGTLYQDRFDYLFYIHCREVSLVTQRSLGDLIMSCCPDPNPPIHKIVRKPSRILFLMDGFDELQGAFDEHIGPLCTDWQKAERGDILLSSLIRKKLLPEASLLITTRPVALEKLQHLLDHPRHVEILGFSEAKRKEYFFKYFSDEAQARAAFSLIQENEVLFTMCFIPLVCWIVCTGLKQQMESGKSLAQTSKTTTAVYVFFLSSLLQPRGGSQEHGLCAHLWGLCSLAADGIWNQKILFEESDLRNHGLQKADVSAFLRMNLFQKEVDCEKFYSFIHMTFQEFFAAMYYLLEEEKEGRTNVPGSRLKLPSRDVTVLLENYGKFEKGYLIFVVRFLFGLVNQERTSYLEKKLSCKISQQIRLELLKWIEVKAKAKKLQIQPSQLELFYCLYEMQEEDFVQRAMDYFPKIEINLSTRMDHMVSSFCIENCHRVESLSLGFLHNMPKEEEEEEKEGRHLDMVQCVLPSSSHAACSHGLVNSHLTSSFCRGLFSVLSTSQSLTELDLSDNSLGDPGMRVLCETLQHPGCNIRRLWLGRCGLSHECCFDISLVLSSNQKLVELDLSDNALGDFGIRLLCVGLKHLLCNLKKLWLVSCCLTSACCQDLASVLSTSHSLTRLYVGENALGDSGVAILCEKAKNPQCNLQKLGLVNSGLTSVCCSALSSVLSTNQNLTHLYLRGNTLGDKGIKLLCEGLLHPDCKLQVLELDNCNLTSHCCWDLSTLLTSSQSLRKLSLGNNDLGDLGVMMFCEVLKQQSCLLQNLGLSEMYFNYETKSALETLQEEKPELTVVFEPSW
pIC50: −log10 of the molar value.
metric: pIC50

The cases that follow already have their pIC50 on record.
                                   compound  metric        result
0  COC1(c2cc(S(=O)(=O)NC(=O)Nc3c4c(cc5c3CCC5)CCC4)nn2C(C)(C)C)COC1 [Example 39]   pIC50  6.80 to 7.40
1  C[C@H](O)Cn1ccc(S(=O)(=O)NC(=O)Nc2c3c(cc4c2CCC4)CCC3)n1 [Example 11]   pIC50  6.80 to 7.40
2  CC(C)c1cc(F)cc(C(C)C)c1NC(=O)NS(=O)(=O)c1cc(C2(O)COC2)n(C(C)C)n1 [Example 43]   pIC50  5.59 to 6.19

Would you be so kind as to report pIC50 for each listed record?
1. COc1cc(-c2cc(F)cc(C(C)C)c2NC(=O)NS(=O)(=O)c2cc(C3(OC)COC3)n(C)n2)ccn1 [Example 40]
2. CC(C)c1cc(F)cc(-c2cccnc2)c1NC(=O)NS(=O)(=O)c1ccn(C[C@@H](C)O)n1 [Example 37]
3. O=C(Nc1c2c(cc3c1CCC3)CCC2)NS(=O)(=O)c1ccn(C2COCC2O)n1 (stereo not shown) [Example 105]
4. CC(C)(O)Cn1ccc(S(=O)(=O)NC(=O)Nc2c3c(cc4c2CCC4)CCC3)n1 [Example 10]

Response given:
1: 6.19 to 6.80; 2: 6.19 to 6.80; 3: 6.19 to 6.80; 4: 6.80 to 7.40

Items follow; give pIC50 for each.
1. CC(C)n1nc(S(=O)(=O)NC(=O)Nc2c3c(cc4c2CCC4)CCC3)cc1C1(O)COC1 [Example 47]
2. O=C(Nc1c2c(cc3c1CCC3)CCC2)NS(=O)(=O)c1ccn(CC2CCCO2)n1 (single isomer, unassigned) [Example 4]
3. Cn1nc(S(=O)(=O)NC(=O)Nc2c3c(cc4c2CCC4)CCC3)cc1C1(F)COC1 [Example 49]
4. C[C@@H](CO)n1ccc(S(=O)(=O)NC(=O)Nc2c3c(cc4c2CCC4)CCC3)n1 [Example 15]
5. CCn1nc(S(=O)(=O)NC(=O)Nc2c3c(cc4c2CCC4)CCC3)cc1C1(O)COC1 [Example 46]
6. CC(C)c1cc(Cl)cc(C(C)C)c1NC(=O)NS(=O)(=O)c1ccn(C2CCOCC2)n1 [Example 32]
7. CC(C)c1cc(F)cc(C(C)C)c1NC(=O)NS(=O)(=O)c1ccn(CC(C)(C)O)n1 [Example 18]

Response given:
1. 6.80 to 7.40
2. 6.80 to 7.40
3. 6.19 to 6.80
4. 6.80 to 7.40
5. > 7.40
6. 5.59 to 6.19
7. 5.59 to 6.19

// for each compound below, give its pIC50
1. CC[C@H](O)Cn1ccc(S(=O)(=O)NC(=O)Nc2c3c(cc4c2CCC4)CCC3)n1 [Example 21]
2. O=C(Nc1c2c(cc3c1CCC3)CCC2)NS(=O)(=O)c1ccn(C2(CO)CCC2)n1 [Example 24]

Response given:
1. 6.80 to 7.40
2. 6.80 to 7.40
